Readings of IC50 (neutralization in TZM.bl cells) for the listed binders
SYSTEM NAME: HIV-1 pseudovirus 6952.v1.c20 (HIV-1)
EXPERIMENTAL PROTOCOL: cell-based or functional assay
OUTCOME MEASURE: IC50 (neutralization in TZM.bl cells) (µg/mL)

binder="MS-88 (antibody, V domains shown) VH: QVQLVQSGPEVRKPGTSVKVSCKASGYTFKTYDLHWVRSVPGQGLQWMGWISHEGDKKVIVERFKAKVTITRDRSTNTAYLQLSGLTSGDTAVYYCAKGSKHRLRDYALYDDDGALNWAVDVDYLSNLEFWGQGTAVTVSS VL: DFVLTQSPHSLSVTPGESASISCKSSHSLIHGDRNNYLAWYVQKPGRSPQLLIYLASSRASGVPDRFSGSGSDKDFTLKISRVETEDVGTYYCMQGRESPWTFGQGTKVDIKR" quantity_unit=µg/mL qualifier_operator=> quantitative_result=25
binder="MS-76 (antibody, V domains shown) VH: QVQLVQSGPEVRKPGTSVKVSCKAPGYTLKTYDLHWVRSVPGQGLQWMGWISHEGDKKVIVERFKAKVTIDWDRSTNTAYLQLSGLTSGDTAVYYCAKGSKHRLRDYALYDDDGALNWAVDVDYLSNLEFWGQGTAVTVSS VL: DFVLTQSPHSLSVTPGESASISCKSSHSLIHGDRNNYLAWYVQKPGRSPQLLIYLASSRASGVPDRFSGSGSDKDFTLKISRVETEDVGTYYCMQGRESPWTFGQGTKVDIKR" quantity_unit=µg/mL qualifier_operator== quantitative_result=0.844
